// provenance: ChEMBL document CHEMBL3872285

Reported clearance values follow for various compounds
Assay Protocol: Clearance in Beagle dog at 1 mg/kg, iv through bolus administration
Test Parameters: in vivo
Provide the reading as a plain figure in mL/min/kg.

C[C@H](Nc1ncnc(N)c1C#N)c1nn2ccc(C#N)c2c(=O)n1-c1ccccc1	1.4

Reported clearance for C[C@H](Nc1ncnc(N)c1C#N)c1nn2ccc(C(F)(F)F)c2c(=O)n1-c1ccccc1 : what is it?
4.2

###

Assay Protocol: Half life in Wistar rat at 1 mg/kg, iv
Format: ADME, organism-based
Test Parameters: in vivo
Mark fulfilled for reported half-life of 1 h or greater; mark not fulfilled for anything smaller.

Does N#Cc1c(N)ncnc1N[C@@H](CCO)c1nn2cccc2c(=O)n1-c1ccccc1 have a reported half-life of at least 1 h?
fulfilled

Please check the record C[C@H](Nc1ncnc(N)c1C#N)c1nn2ccc(C(F)(F)F)c2c(=O)n1-c1ccccc1 and state if its half-life is at or above 1 h.
fulfilled

Item C[C@H](Nc1ncnc(N)c1C#N)c1nn2cccc2c(=O)n1-c1ccccc1 with half-life of 1 h or above?
not fulfilled

Decide: half-life of C[C@H](Nc1ncnc(N)c1C#N)c1nn2ccc(C#N)c2c(=O)n1-c1ccccc1 >= 1 h?
fulfilled

Form field: half-life at least 1 h? Entry: CC[C@H](Nc1ncnc2[nH]cnc12)c1nc2cccc(F)c2c(=O)n1-c1ccccc1
not fulfilled

###

Tgt: PI3K p110 beta/p85 alpha (Homo sapiens)
Sequence (P42338 whole entry, one chain of several): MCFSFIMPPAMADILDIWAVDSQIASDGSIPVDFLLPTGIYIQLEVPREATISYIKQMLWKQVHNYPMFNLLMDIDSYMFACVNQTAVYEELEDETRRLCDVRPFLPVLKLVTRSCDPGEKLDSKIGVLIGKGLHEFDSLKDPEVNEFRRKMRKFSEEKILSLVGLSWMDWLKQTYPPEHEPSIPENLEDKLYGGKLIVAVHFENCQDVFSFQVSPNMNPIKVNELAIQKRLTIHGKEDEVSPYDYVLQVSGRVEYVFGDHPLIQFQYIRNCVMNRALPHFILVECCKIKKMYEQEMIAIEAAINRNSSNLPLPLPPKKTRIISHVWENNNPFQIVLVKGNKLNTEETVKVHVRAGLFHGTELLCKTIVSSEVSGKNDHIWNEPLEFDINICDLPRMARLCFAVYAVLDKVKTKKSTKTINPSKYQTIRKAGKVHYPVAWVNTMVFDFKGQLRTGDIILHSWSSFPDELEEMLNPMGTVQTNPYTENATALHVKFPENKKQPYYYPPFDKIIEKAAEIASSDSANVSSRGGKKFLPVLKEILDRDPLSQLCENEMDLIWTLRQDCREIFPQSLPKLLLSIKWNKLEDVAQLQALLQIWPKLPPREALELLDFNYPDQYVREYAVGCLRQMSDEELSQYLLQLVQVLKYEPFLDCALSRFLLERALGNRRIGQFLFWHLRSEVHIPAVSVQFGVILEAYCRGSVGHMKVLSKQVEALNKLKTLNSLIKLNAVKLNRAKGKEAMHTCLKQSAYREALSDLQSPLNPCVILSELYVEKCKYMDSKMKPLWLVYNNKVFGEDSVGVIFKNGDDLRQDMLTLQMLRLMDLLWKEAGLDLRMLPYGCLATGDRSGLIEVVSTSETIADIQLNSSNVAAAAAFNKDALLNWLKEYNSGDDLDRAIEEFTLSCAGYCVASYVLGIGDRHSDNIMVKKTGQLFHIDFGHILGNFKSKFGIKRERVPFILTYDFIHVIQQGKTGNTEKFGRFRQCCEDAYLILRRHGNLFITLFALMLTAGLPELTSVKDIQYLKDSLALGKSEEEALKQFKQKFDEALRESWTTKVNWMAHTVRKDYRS
Assay Protocol: Inhibition of full length recombinant human N-terminal […]-tagged PI3K p110beta/full length human p85alpha expressed in baculovirus infected Sf21 insect cells using PIP2 as substrate preincubated for 30 mins followed by substrate addition by HTRF assay
Test Readout: pIC50
Just so you know, pIC50 here is -log10 of the concentration in molar units; reply with that number alone.

Hi! What's the reported pIC50 for C[C@H](Nc1ncnc(N)c1C#N)c1nn2ccc(C#N)c2c(=O)n1-c1ccccc1 on PI3K p110 beta/p85 alpha (Homo sapiens)?
7.03

###

Assay Protocol: Protein binding in rat plasma at 1 uM by LC-MS/MS analysis
Assay type: ADME, cell-free
Test Parameters: read-out: PPB
Test Readout: fraction unbound at 1 µM

Consider the compound shown here: C[C@H](Nc1ncnc(N)c1C#N)c1nn2ccc(C#N)c2c(=O)n1-c1ccccc1 What is its recorded fraction unbound at 1 µM?
0.35 to 0.4

###

AUC by entry:
Assay Protocol: AUC in Beagle dog at 1 mg/kg, iv through bolus administration
Assay type: ADME, organism-based, Canis lupus familiaris
Test Parameters: in vivo
Quick note: number first, unit second.

C[C@H](Nc1ncnc(N)c1C#N)c1nn2ccc(C#N)c2c(=O)n1-c1ccccc1	9440 ng·h/mL
CC[C@H](Nc1ncnc2[nH]cnc12)c1nc2cccc(F)c2c(=O)n1-c1ccccc1	924 ng·h/mL

Entry under review: C[C@H](Nc1ncnc(N)c1C#N)c1nn2ccc(C(F)(F)F)c2c(=O)n1-c1ccccc1 . Reported AUC?
3940 ng·h/mL

###

Assay Protocol: Stability in human plasma at 5 uM up to 24 hrs by UPLC-MS/MS analysis
Format: ADME, cell-free
Test Parameters: read-out: Stability
Test Readout: remaining at 24 h, 5 µM (%)
Give the value in % but do not write % after it.

Recorded remaining at 24 h, 5 µM of C[C@H](Nc1ncnc(N)c1C#N)c1nn2ccc(C#N)c2c(=O)n1-c1ccccc1 , please.
100

###

Assay Protocol: Drug metabolism in human liver microsomes assessed as disappearance of parent compound at 5 uM after 30 mins in presence of NADPH by UPLC-MS/MS analysis
The following ranges of metabolised at 0.5 h, 5 µM define the classes used here: lower band: < 30%; central band: ≥ 30% and < 40%; upper band: ≥ 40%

Some entries whose results are on file:
C[C@H](Nc1nc(N)nc(N)n1)c1nn2cccc2c(=O)n1-c1ccccc1	central band
C[C@H](Nc1ncnc2[nH]cc(F)c12)c1nn2cccc2c(=O)n1-c1ccccc1	upper band
C[C@H](Nc1ncnc(N)c1C#N)c1nn2ccc(C#N)c2c(=O)n1-c1ccccc1	lower band
C[C@H](Nc1ncnc(N)c1C#N)c1nn2c(C#N)ccc2c(=O)n1-c1ccccc1	lower band

Please report the category associated with N#Cc1c(N)ncnc1N1CCC[C@H]1c1nn2cccc2c(=O)n1-c1ccccc1 , nothing else.
upper band

###

As shown below, each of these molecules has a reported AUC value.
Assay Protocol: AUC in Wistar rat at 1 mg/kg, iv
Assay type: ADME, organism-based
Test Parameters: in vivo
Express it in ng·h/mL; write the number only.

Known results for molecules:
CC[C@H](Nc1ncnc2[nH]cnc12)c1nc2cccc(F)c2c(=O)n1-c1ccccc1	512
C[C@H](Nc1ncnc(N)c1C#N)c1nn2cccc2c(=O)n1-c1ccccc1	386
C[C@H](Nc1ncnc(N)c1C#N)c1nn2ccc(C#N)c2c(=O)n1-c1ccccc1	1730
N#Cc1c(N)ncnc1N[C@@H](CCO)c1nn2cccc2c(=O)n1-c1ccccc1	450

Consider the record given below.
Requested field: AUC. Item: C[C@H](Nc1ncnc(N)c1C#N)c1nn2ccc(C(F)(F)F)c2c(=O)n1-c1ccccc1
2040

###

Attribute: metabolised at 0.5 h, 5 µM
Assay Protocol: Drug metabolism in human liver microsomes assessed as disappearance of parent compound at 5 uM after 30 mins in presence of NADPH by UPLC-MS/MS analysis
Your answer is read as %, so omit the unit and give the number.

Consider the reported metabolised at 0.5 h, 5 µM for these compounds:
C[C@H](Nc1ncnc(N)c1C#N)c1nn2ccnc2c(=O)n1-c1ccccc1	23
C[C@H](Nc1ncnc2[nH]ccc12)c1nn2cccc2c(=O)n1-c1ccccc1	49
CC[C@H](Nc1ncnc(N)c1C#N)c1nn2cccc2c(=O)n1-c1ccccc1	32
N#Cc1c(N)ncnc1N[C@@H](CCO)c1nn2cccc2c(=O)n1-c1ccccc1	7
CC[C@@H](Nc1ncnc2[nH]cnc12)c1nn2cccc2c(=O)n1-c1ccccc1	30

What measured metabolised at 0.5 h, 5 µM goes with N#Cc1c(N)ncnc1NC(CO)c1nn2cccc2c(=O)n1-c1ccccc1 (single isomer, unassigned) ?
31

Reported metabolised at 0.5 h, 5 µM for Cc1ccc2c(=O)n(-c3ccccc3)c([C@H](C)Nc3ncnc(N)c3C#N)nn12 : what is it?
82

metabolised at 0.5 h, 5 µM lookup needed for C[C@H](Nc1ncnc(N)c1C#N)c1nn2cccc2c(=O)n1-c1ccccc1 , thanks.
24

Quick one: metabolised at 0.5 h, 5 µM of CC[C@H](Nc1ncnc2[nH]cnc12)c1nn2cccc2c(=O)n1-c1ccccc1 ?
49

###

clearance by entry:
Assay Protocol: Clearance in Wistar rat at 1 mg/kg, iv
Test Parameters: in vivo
Just the number in mL/min/kg, nothing appended.

Example results:
C[C@H](Nc1ncnc(N)c1C#N)c1nn2cccc2c(=O)n1-c1ccccc1	43.5
N#Cc1c(N)ncnc1N[C@@H](CCO)c1nn2cccc2c(=O)n1-c1ccccc1	36.8
C[C@H](Nc1ncnc(N)c1C#N)c1nn2ccc(C(F)(F)F)c2c(=O)n1-c1ccccc1	8.6

For the compound shown here, C[C@H](Nc1ncnc(N)c1C#N)c1nn2ccc(C#N)c2c(=O)n1-c1ccccc1 , give the reported clearance.
9.6

###

Assay Protocol: Drug metabolism in rat liver microsomes assessed as disappearance of parent compound at 5 uM after 30 mins in presence of NADPH by UPLC-MS/MS analysis
Test Readout: metabolised at 0.5 h, 5 µM (%)
Enter your answer as a number in %; do not include the unit.

Worked cases, answers included:
C[C@H](Nc1ncnc(N)c1C#N)c1nn2cccc2c(=O)n1-c1ccccc1	15
N#Cc1c(N)ncnc1N1CCC[C@H]1c1nn2cccc2c(=O)n1-c1ccccc1	46
C[C@H](Nc1ncnc(N)c1C#N)c1nn2ccc(C#N)c2c(=O)n1-c1ccccc1	20
Cc1ccn2nc([C@H](C)Nc3ncnc(N)c3C#N)n(-c3ccccc3)c(=O)c12	44
C[C@H](Nc1ncnc2[nH]cc(F)c12)c1nn2cccc2c(=O)n1-c1ccccc1	48

Field: next compound
So what does the record say about metabolised at 0.5 h, 5 µM for C[C@H](Nc1ncnc(N)c1C#N)c1nn2ccc(C(F)(F)F)c2c(=O)n1-c1ccccc1 ?
16

###

Tgt: PI3-kinase p110-alpha/p85-alpha (Homo sapiens, UniProt P42336)
Sequence (P27986 whole entry): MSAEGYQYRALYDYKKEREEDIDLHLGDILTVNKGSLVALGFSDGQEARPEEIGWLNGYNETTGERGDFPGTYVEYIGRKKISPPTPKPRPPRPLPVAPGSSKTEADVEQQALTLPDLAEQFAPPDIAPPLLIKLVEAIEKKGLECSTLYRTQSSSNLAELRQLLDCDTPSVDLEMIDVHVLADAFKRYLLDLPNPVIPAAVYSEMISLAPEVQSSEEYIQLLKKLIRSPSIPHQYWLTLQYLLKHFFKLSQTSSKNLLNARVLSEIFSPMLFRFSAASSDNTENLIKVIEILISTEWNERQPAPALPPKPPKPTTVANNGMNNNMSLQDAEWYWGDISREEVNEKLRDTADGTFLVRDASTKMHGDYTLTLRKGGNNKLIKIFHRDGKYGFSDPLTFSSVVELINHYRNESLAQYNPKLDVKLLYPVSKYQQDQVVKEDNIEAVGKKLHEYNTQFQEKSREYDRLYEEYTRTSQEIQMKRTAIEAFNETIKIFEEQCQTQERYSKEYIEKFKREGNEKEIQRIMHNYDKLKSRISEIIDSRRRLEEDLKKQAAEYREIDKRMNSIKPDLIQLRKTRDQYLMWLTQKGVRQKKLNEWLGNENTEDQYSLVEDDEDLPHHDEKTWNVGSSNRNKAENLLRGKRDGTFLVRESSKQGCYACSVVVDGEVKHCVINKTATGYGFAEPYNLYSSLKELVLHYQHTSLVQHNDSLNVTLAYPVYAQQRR
Sequence (P42336 whole entry): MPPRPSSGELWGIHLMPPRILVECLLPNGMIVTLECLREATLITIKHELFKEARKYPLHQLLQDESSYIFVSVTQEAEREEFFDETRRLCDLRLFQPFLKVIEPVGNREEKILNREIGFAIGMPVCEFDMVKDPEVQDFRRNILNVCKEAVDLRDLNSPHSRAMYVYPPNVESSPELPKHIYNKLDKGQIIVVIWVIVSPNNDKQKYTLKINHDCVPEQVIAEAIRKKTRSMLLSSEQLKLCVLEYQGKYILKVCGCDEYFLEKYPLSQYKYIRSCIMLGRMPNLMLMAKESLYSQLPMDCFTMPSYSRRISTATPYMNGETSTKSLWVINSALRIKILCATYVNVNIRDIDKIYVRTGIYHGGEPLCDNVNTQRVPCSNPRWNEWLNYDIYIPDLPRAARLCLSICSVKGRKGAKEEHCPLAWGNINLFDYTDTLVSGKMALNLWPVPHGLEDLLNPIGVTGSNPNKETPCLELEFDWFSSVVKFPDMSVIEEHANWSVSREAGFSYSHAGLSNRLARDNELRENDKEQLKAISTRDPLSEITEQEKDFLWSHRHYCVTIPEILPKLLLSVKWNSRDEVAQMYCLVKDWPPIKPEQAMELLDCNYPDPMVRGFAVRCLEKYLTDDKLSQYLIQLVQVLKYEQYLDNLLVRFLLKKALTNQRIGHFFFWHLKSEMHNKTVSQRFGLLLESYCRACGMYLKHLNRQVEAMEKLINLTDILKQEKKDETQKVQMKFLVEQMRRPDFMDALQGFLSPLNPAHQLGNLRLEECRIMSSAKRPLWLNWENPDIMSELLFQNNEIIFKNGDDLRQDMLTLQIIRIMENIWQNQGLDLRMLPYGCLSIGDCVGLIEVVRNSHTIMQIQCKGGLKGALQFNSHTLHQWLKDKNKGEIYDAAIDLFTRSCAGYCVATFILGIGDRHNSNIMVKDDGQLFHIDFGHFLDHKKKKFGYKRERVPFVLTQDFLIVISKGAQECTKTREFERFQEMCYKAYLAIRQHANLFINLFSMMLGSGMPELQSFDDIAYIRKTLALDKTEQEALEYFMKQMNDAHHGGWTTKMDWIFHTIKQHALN
Assay Protocol: Inhibition of full length recombinant human N-terminal His6-tagged PI3K p110alpha/human p85alpha expressed in baculovirus infected Sf21 insect cells using PIP2 as substrate preincubated for 30 mins followed by substrate addition by HTRF assay
Test Readout: IC50 (µM)
The reply should be a number in µM, with the unit left off.

// map C[C@H](Nc1ncnc(N)c1C#N)c1nn2ccc(C#N)c2c(=O)n1-c1ccccc1 to recorded IC50 (system: PI3-kinase p110-alpha/p85-alpha (Homo sapiens, UniProt P42336))
8.2

###

Tgt: PI3-kinase p110-delta/p85-alpha (Homo sapiens, UniProt O00329)
Sequence (O00329 whole entry, one chain of several): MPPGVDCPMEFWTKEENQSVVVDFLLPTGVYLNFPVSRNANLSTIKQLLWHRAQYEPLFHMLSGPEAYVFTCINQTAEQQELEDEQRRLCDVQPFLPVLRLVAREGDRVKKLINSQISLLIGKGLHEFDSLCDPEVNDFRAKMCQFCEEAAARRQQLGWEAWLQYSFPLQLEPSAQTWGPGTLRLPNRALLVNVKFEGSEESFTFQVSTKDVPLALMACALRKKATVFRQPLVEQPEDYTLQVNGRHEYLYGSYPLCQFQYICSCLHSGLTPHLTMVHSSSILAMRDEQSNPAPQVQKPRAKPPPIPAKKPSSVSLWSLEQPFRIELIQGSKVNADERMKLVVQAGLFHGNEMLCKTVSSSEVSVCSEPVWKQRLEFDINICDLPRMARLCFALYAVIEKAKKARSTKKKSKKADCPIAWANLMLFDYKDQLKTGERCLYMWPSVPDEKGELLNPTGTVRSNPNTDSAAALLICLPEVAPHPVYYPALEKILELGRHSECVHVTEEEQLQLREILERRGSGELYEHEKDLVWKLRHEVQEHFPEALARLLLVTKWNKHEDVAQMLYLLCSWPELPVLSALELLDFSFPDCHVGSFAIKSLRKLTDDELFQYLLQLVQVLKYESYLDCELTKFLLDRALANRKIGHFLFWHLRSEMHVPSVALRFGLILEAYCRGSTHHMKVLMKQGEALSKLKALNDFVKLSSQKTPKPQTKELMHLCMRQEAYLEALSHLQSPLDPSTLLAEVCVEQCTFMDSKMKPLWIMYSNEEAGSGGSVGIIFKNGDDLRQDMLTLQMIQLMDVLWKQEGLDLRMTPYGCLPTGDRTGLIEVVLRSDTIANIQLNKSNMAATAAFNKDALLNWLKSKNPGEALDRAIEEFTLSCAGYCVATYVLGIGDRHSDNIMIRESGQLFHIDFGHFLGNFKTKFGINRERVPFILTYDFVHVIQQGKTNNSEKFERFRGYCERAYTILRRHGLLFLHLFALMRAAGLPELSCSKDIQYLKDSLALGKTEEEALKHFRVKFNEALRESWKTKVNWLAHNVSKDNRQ
Assay Protocol: Inhibition of full length recombinant human N-terminal His6-tagged PI3K p110delta/human p85alpha expressed in baculovirus infected sf21 cells using PIP2 as substrate preincubated for 30 mins followed by substrate addition by HTRF assay
Test Readout: log10(IC50) (log10 of the value in nM)
All values: base-10 log of IC50 in nM.

Entry C[C@H](Nc1ncnc(N)c1C#N)c1nn2cc(F)cc2c(=O)n1-c1ccccc1 has what log10(IC50)?
1.23

Fill in: log10(IC50) of C[C@H](Nc1nc(N)nc(N)n1)c1nn2cccc2c(=O)n1-c1ccccc1 is ___
1.96

Record request: log10(IC50) value, item C[C@H](Nc1ncnc(N)c1C#N)c1nn2c(C(F)(F)F)ccc2c(=O)n1-c1ccccc1
1.85

Field request: log10(IC50) | item: N#Cc1c(N)ncnc1N1CC(F)(F)C[C@H]1c1nn2cccc2c(=O)n1-c1ccccc1
1.49

State the recorded log10(IC50) for this entry: C[C@H](Nc1ncnc(N)c1C#N)c1nn2ccc(CO)c2c(=O)n1-c1ccccc1
0.63
